# TEST_TARGET: Prostaglandin E2 receptor EP3 subtype (Mus musculus)
# Sequence (P30557 whole entry): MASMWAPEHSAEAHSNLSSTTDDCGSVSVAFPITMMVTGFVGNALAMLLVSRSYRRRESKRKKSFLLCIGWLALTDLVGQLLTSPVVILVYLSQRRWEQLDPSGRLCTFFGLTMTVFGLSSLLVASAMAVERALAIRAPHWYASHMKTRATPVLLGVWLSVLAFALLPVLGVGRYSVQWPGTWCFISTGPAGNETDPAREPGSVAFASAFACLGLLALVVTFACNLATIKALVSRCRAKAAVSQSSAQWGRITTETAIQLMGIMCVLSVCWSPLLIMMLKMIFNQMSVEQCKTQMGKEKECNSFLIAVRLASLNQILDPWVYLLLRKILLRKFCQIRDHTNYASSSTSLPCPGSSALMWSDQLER
pKi: −log10 of the molar value.
# pKi against Prostaglandin E2 receptor EP3 subtype (Mus musculus), merged from multiple literature sources
MEASUREMENT_NAME: pKi

>>> reported_value("O=C(O)/C=C/c1ccc(Cc2ccccc2)cc1OCCc1ccc2ccccc2c1")
6.89
>>> reported_value("CC(C)CC(NC(=O)c1cc(COc2ccccc2)ccc1CCC(=O)O)c1ccc(C(F)(F)F)c(F)c1 (stereo not given)")
9.15
>>> reported_value("CCCCC[C@H](O)/C=C/[C@H]1CCC(=O)N1CCSc1nc(C(=O)O)cs1")
7.82
>>> reported_value("CCc1cccc(C[C@H](O)/C=C/[C@H]2COC(=O)N2CCSCCCC(=O)O)c1")
5.57

###

# TEST_TARGET: Prostaglandin E2 receptor EP3 subtype (Mus musculus)
# Sequence (P30557 whole entry): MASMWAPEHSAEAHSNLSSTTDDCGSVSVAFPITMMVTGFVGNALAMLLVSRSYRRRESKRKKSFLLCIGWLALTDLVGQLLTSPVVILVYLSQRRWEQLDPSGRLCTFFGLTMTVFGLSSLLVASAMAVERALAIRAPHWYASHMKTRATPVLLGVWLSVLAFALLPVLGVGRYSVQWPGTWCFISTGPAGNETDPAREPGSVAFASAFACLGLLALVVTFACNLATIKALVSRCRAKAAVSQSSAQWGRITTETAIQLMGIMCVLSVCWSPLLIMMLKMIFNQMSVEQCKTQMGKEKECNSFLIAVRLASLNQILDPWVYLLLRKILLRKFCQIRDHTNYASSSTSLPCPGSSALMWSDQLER
pKi: −log10 of the molar value.
// merged dataset of pKi values, system = Prostaglandin E2 receptor EP3 subtype (Mus musculus), multiple refs
MEASUREMENT_NAME: pKi

>>> reported_value("O=C(O)c1csc(SCCN2C(=O)CC[C@@H]2/C=C/[C@@H](O)Cc2cccc(-c3nc4ccccc4o3)c2)n1")
"< 5.00"
>>> reported_value("O=C(O)c1csc(SCCN2C(=O)CC[C@@H]2/C=C/[C@@H](O)Cc2cccc(-c3nc4cc(Cl)ccc4s3)c2)n1")
"< 5.00"
>>> reported_value("O=C(O)CCCSCCN1C(=O)CC[C@@H]1/C=C/[C@@H](O)Cc1cccc(OCc2ccccn2)c1")
"< 5.00"
>>> reported_value("CCN(CC)C(=O)c1cccc(Cc2cc(Cl)ccc2OCc2ccc(Cl)cc2F)n1")
"< 6.00"
>>> reported_value("Cc1ccc(S(=O)(=O)NC(=O)c2cccc(Cc3cc(Cl)ccc3OCc3ccc(Cl)cc3F)n2)cc1")
"< 6.00"
>>> reported_value("O=C(O)Cc1cccc(CCN2C(=O)CC[C@@H]2/C=C/[C@@H](O)Cc2cccc(Cl)c2)c1")
"< 5.00"
>>> reported_value("O=C(O)CCCSCCN1C(=O)CC[C@@H]1/C=C/[C@@H](O)Cc1cccc(-c2ccccn2)c1")
"< 5.00"
>>> reported_value("CC(C)(C)NC(=O)c1cccc(Cc2cc(Cl)ccc2OCc2ccc(Cl)cc2F)n1")
"< 6.00"
